Here, each record is paired with measured melting point data.
experimental.readout: melting point

                                   molecule  experimental_readout           observed
0  CC(=O)N[C@@H](C)COc1ccc2nc(-c3ccc(OCC4CC4)c(F)c3)oc2c1 [Example 1]         melting point             174 °C
1  CC(=O)N[C@@H](C)COc1cc2oc(-c3cc(F)c(OCC4CC4)cc3F)nc2cn1 [Example 48]         melting point  199.8 to 199.9 °C
2  CC(=O)N[C@@H](C)COc1cc2oc(-c3ccc(OC[C@H]4CC4(F)F)cc3)nc2cn1 [Example 68]         melting point  204.6 to 204.7 °C
3  COc1cc(-c2nc3cnc(OC[C@H](C)NC(C)=O)cc3o2)cc(F)c1OCC1CC1 [Example 62]         melting point    162.9 to 163 °C
4  CC(=O)N[C@@H](C)COc1ccc2nc(-c3ccc(OCC4CC4)c(Cl)c3)oc2c1 [Example 29]         melting point      156 to 159 °C
5  CC(=O)N[C@@H](C)COc1ccc2nc(-c3ccc(OCC4CC4)c(F)c3)oc2c1F [Example 37]         melting point      163 to 164 °C
6  CC(=O)N[C@@H](C)COc1cc2oc(-c3cc(F)c(OCC4CC4)cn3)nc2cn1 [Example 65]         melting point  183.3 to 183.4 °C

* * *

Here, each record is paired with measured inhibition at 10 µM data.
- measurement.target: human ACC2 (Homo sapiens)
- Construct: made in house; host or cells: SF-9 insect cells, recombinant baculovirus BAC-ACC2 (Nd)
- Sequence (O00763 117-2458 limits assumed): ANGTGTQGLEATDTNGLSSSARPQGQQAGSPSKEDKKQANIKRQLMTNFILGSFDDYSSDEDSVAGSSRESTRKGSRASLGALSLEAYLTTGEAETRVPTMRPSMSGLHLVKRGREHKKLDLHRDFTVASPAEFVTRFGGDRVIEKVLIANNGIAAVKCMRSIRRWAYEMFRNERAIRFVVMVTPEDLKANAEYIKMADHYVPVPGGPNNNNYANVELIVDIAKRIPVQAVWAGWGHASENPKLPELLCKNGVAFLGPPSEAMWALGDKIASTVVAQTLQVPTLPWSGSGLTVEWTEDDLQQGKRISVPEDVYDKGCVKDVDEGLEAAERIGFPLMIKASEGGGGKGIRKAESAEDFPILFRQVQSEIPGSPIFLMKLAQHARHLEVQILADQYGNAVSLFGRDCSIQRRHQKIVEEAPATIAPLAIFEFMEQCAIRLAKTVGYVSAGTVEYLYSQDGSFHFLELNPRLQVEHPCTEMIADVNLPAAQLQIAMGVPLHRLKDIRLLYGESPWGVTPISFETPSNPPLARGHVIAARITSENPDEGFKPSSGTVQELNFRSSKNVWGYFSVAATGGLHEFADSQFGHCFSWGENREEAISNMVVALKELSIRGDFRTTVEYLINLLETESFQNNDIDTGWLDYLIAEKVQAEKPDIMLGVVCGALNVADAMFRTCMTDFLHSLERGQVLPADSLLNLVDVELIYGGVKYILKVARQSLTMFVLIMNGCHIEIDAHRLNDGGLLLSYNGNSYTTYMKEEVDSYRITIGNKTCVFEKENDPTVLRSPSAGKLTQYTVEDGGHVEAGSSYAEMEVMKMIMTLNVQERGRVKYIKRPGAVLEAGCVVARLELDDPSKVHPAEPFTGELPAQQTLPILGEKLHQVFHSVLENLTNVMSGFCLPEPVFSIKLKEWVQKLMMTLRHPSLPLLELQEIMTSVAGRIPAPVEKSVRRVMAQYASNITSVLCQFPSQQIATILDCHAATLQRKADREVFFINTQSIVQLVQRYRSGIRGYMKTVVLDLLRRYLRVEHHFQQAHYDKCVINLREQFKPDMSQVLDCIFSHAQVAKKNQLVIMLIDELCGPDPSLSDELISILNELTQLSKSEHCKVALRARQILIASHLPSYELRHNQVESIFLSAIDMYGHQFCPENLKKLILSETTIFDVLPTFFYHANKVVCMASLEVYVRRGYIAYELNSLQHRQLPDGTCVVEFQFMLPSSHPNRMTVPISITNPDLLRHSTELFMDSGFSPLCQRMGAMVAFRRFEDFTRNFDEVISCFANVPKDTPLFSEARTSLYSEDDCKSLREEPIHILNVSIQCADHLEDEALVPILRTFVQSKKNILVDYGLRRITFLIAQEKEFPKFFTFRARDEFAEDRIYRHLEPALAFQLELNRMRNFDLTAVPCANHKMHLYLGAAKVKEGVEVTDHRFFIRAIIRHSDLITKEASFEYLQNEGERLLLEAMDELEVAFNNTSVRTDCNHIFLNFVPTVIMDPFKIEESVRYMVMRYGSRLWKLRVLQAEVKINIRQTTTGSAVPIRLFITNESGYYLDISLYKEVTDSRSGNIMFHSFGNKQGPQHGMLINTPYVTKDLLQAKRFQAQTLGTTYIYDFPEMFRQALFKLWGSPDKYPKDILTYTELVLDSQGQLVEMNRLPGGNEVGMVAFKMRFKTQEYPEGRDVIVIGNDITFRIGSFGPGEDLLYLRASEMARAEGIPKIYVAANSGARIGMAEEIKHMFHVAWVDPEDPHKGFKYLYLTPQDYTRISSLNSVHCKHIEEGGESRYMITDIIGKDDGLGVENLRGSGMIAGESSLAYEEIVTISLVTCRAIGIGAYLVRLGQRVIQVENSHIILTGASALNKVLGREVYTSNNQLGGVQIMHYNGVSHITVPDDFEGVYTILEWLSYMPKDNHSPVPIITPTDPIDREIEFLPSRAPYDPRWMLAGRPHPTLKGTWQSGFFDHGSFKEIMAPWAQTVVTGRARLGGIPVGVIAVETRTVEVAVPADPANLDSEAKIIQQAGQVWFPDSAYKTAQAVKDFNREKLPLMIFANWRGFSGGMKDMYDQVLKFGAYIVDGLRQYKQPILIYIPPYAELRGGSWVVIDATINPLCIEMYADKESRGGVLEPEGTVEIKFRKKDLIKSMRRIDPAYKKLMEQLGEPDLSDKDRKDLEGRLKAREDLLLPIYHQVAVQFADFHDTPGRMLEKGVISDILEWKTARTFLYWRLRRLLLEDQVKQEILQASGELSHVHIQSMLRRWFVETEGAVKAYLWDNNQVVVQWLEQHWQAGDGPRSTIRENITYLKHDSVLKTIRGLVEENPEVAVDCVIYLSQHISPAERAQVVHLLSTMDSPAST
- method.summary: ACC2 inhibitory activity, malachite green assay with recombinant ACC2 (Nd)
- Format: biochemical
- protocol.conditions: 10 μM of the test compound; read-out: ACC2 inhibitory rates (%) at 10 μM
experimental.readout: inhibition at 10 µM

                                   compound  observed
0  C[C@@H](COc1ccc2nc(-c3ccc(OCC4CC4)c(F)c3)oc2c1)NC(=O)N(C)C       91%
1  CC(=O)NC(C)COC1CCc2oc(-c3ccc(OCC4CC4)c(F)c3)nc2C1 (centres unmarked) [Example 51c]       84%
2  CC(=O)N[C@@H](C)COc1cc2oc(-c3ccc(OCC4(C)CC4(F)F)c(F)c3)nc2cn1 (some centres unmarked)       80%
3  CC(=O)N[C@@H](C)COc1ccc2nc(-c3ccc(OCC4CC4(F)F)c(F)c3)oc2c1F (some centres unmarked)       89%
4  CC(=O)N[C@@H](C)COc1cc2oc(-c3ccc(OCC4CC4(F)F)c(F)c3)nc2cn1 (some centres unmarked)       94%
5  CC(=O)N[C@@H](C)COc1cc2oc(-c3cc(F)c(OCC4CC4(F)F)c(F)c3)nc2cn1 (some centres unmarked)       96%
6  CC(=O)N[C@@H](C)COc1cc2oc(-c3ncc(OC[C@H]4CC4(F)F)cc3Cl)nc2cn1       93%
7  CC(=O)N[C@@H](C)COc1ncc2nc(-c3ccc(OCC4CC4(F)F)cc3)oc2n1 (some centres unmarked)       84%
